experiment: Water content by Karl Fisher analysis on storage (Example 3); type: physicochemical; conditions: 3 months, 25° C./60% RH
Mark each entry t if its Moisture sits below 6 % w/w, and f for all others.

{"molecule": "CN1CCC23c4c5ccc(O)c4OC2C(OC2OC(C(=O)O)C(O)C(O)C2O)C=CC3C1C5.CN1CCC23c4c5ccc(O)c4OC2C(OC2OC(C(=O)O)C(O)C(O)C2O)C=CC3C1C5.O=S(=O)(O)O (stereo not shown) [Morphine-6-glucuronide sulphate]", "assigned class": "t"}
{"molecule": "Br.CN1CC[C@]23c4c5ccc(O)c4O[C@H]2[C@@H](O[C@@H]2O[C@H](C(=O)O)[C@@H](O)[C@H](O)[C@H]2O)C=C[C@H]3[C@H]1C5 [Morphine-6-glucuronide hydrobromide]", "assigned class": "t"}
{"molecule": "CN1CCC23c4c5ccc(O)c4OC2C(OC2OC(C(=O)O)C(O)C(O)C2O)C=CC3C1C5.O=P(O)(O)O (stereo not shown) [Morphine-6-glucuronide phosphate]", "assigned class": "t"}
{"molecule": "CN1CCC23c4c5ccc(O)c4OC2C(OC2OC(C(=O)O)C(O)C(O)C2O)C=CC3C1C5.CN1CCC23c4c5ccc(O)c4OC2C(OC2OC(C(=O)O)C(O)C(O)C2O)C=CC3C1C5.O=C(O)C=CC(=O)O (stereo not shown) [Morphine-6-glucuronide fumarate]", "assigned class": "f"}
{"molecule": "CN1CCC23c4c5ccc(O)c4OC2C(OC2OC(C(=O)O)C(O)C(O)C2O)C=CC3C1C5.CN1CCC23c4c5ccc(O)c4OC2C(OC2OC(C(=O)O)C(O)C(O)C2O)C=CC3C1C5.O=C(O)C=CC(=O)O (stereo not shown) [Morphine-6-glucuronide maleate]", "assigned class": "f"}
{"molecule": "CN1CC[C@]23c4c5ccc(O)c4O[C@H]2[C@@H](O[C@@H]2O[C@H](C(=O)O)[C@@H](O)[C@H](O)[C@H]2O)C=C[C@H]3[C@H]1C5 [Morphine-6-glucuronide base, morphine-6-β-D-glucuronide]", "assigned class": "f"}

###

Total Unknown listing for selected compounds.
assay: Stability indicating HPLC assay and related substances on storage (Example 3); assay type: physicochemical; conditions: 1 month, 60° C.
observation type: Total Unknown (%)

{"compound": "CN1CCC23c4c5ccc(O)c4OC2C(OC2OC(C(=O)O)C(O)C(O)C2O)C=CC3C1C5.CN1CCC23c4c5ccc(O)c4OC2C(OC2OC(C(=O)O)C(O)C(O)C2O)C=CC3C1C5.O=C(O)C=CC(=O)O (centres unmarked) [Morphine-6-glucuronide fumarate]", "reported result": 1.94}
{"compound": "CN1CC[C@]23c4c5ccc(O)c4O[C@H]2[C@@H](O[C@@H]2O[C@H](C(=O)O)[C@@H](O)[C@H](O)[C@H]2O)C=C[C@H]3[C@H]1C5 [Morphine-6-glucuronide base, morphine-6-β-D-glucuronide]", "reported result": 1.27}

###

Test: Stability indicating HPLC assay and related substances on storage (Example 3)
Format: physicochemical
Settings: 3 months, 25° C./60% RH
Protocol: Assay (% w/w) and related substances determination Each test material was stored between 2-8*C prior to placing on stability. Each material was sub-divided into 900 mg aliquots, transferred to brown opaque HDPE plastic bottles and flushed with Argon prior to sealing. Sufficient samples were provided for each time point as well as spares for each storage condition. The samples were placed in appropriate incubators previously commissioned at storage conditions 25° C./60% RH, 40° C./75% RH and 60° C. […]
Quick reference: Known Related Substances HN67003 of the listed items.
observation type: Known Related Substances HN67003 (%)

{"molecule": "CN1CCC23c4c5ccc(O)c4OC2C(OC2OC(C(=O)O)C(O)C(O)C2O)C=CC3C1C5.CN1CCC23c4c5ccc(O)c4OC2C(OC2OC(C(=O)O)C(O)C(O)C2O)C=CC3C1C5.O=S(=O)(O)O (stereo not drawn) [Morphine-6-glucuronide sulphate]", "reported result": 1.36}
{"molecule": "CN1CCC23c4c5ccc(O)c4OC2C(OC2OC(C(=O)O)C(O)C(O)C2O)C=CC3C1C5.CN1CCC23c4c5ccc(O)c4OC2C(OC2OC(C(=O)O)C(O)C(O)C2O)C=CC3C1C5.O=C(O)C=CC(=O)O (stereo not drawn) [Morphine-6-glucuronide maleate]", "reported result": 0.58}
{"molecule": "CN1CC[C@]23c4c5ccc(O)c4O[C@H]2[C@@H](O[C@@H]2O[C@H](C(=O)O)[C@@H](O)[C@H](O)[C@H]2O)C=C[C@H]3[C@H]1C5 [Morphine-6-glucuronide base, morphine-6-β-D-glucuronide]", "reported result": 0.04}
{"molecule": "CN1CC[C@]23c4c5ccc(O)c4O[C@H]2[C@@H](O[C@@H]2O[C@H](C(=O)O)[C@@H](O)[C@H](O)[C@H]2O)C=C[C@H]3[C@H]1C5.Cl [Morphine-6-glucuronide hydrochloride]", "reported result": 1.31}
{"molecule": "CN1CCC23c4c5ccc(O)c4OC2C(OC2OC(C(=O)O)C(O)C(O)C2O)C=CC3C1C5.O=P(O)(O)O (stereo not drawn) [Morphine-6-glucuronide phosphate]", "reported result": 0.16}
{"molecule": "CN1CCC23c4c5ccc(O)c4OC2C(OC2OC(C(=O)O)C(O)C(O)C2O)C=CC3C1C5.CN1CCC23c4c5ccc(O)c4OC2C(OC2OC(C(=O)O)C(O)C(O)C2O)C=CC3C1C5.O=C(O)C=CC(=O)O (stereo not drawn) [Morphine-6-glucuronide fumarate]", "reported result": 0.26}
